// growth, % of control lookup, one value per entry
# Run Description: qHTS profiling of the MIPE4 collection as inhibitors of Plasmodium falciparum (HB3) proliferation (AID 743347);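 note: plate controls were DMSO vehicle wells for no effect and artemisinin wells for full effect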
# Run Parameters: P. falciparum HB3 in erythrocytes, SYBR Green DNA, 72 h; at 28.5 µM (top of the series) unless noted
# Protocol: Plasmodium falciparum is a virulent malarial parasite that kills 1-2 million people worldwide each year. […] Because mature erythrocytes lack DNA, only Plasmodium-derived DNA is detected. The SYBR Green viability assay was adapted from a method described previously (Plouffe et al., 2008). […] The following morning, fluorescence intensity at 485(14) nm excitation and 535(25) nm emission wavelengths was measured on an EnVision (Perkin Elmer) plate reader. […]
Endpoint Label: growth, % of control (%)

compound="CCOCC(O)COc1ccc(NC(=O)CC[S+](C)C)cc1 (configuration not stated)" units_text=% measurement=99.4
compound=CC(C)OC(=O)C(C(=O)OC(C)C)=C1SC=CS1 units_text=% measurement=91.6
compound=NC(=O)N1c2ccccc2CC(=O)c2ccccc21 units_text=% measurement=102
compound=CCn1cc(C(=O)O)c(=O)c2cc(F)c(N3CCN(C)CC3)cc21 units_text=% measurement=370
compound="NS(=O)(=O)c1cc2c(cc1Cl)NC(C(Cl)Cl)NS2(=O)=O (configuration not stated)" units_text=% measurement=60.5
compound=CCN[C@H]1C[C@H](C)S(=O)(=O)c2sc(S(N)(=O)=O)cc21 units_text=% measurement=103
compound=CCOC(=O)[C@H](CCc1ccccc1)N[C@H]1CS[C@H](c2cccs2)CN(CC(=O)O)C1=O units_text=% measurement=6.02
compound=Nc1nc(N)nc(-c2cc(Cl)ccc2Cl)n1 units_text=% measurement=97.7
compound=CCCOc1ccc(C(=O)OCCN(CC)CC)cc1N units_text=% measurement=63.6
compound="C1CCC(C(CC2CCCCN2)C2CCCCC2)CC1 (configuration not stated)" units_text=% measurement=1.94
compound="CCCCS(=N)(=O)CCC(N)C(=O)O (configuration not stated)" units_text=% measurement=102

###

# Run Description: Quantitative High-Throughput drug screen in 47 multiple myeloma cell lines against the NCATS MIPE library collection: ARP1_JJKsccF8 cell viability assay (AID 1918928; note: nearly all actives have a fitted effect of over 40% in size;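 for viability: 100% = DMSO only wells and 0% = medium only wells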)
# Run Parameters: ARP1 myeloma cells viability, CellTiter-Glo ATP, 48 h; series mostly up to 45.8 µM
Inconclusive results are not listed. The source made the active and inactive calls. Calls follow the shape of the dose curve; as a rule, active = well fitted cell-killing curve with a large enough effect; inconclusive = small, poorly fitted or top-dose-only effect, or effect the other way; inactive = no such curve, though single readings can be large or run the other way.
Classes used: YES for active, NO for inactive

compound=CCOC(=O)[C@H](CCc1ccccc1)N[C@H]1CS[C@H](c2cccs2)CN(CC(=O)O)C1=O label=YES
compound=Nc1nc(F)nc2c1ncn2[C@@H]1O[C@H](CO)[C@@H](O)[C@@H]1O label=YES
compound=NNC(=O)c1ccncc1 label=NO
compound=NC1(c2ccc(-c3nc4ccn5c(=O)[nH]nc5c4cc3-c3ccccc3)cc2)CCC1 label=YES
compound=Nc1nc(=S)c2[nH]cnc2[nH]1 label=YES
compound="Cc1oc(=O)oc1CN1CCN(c2cc3c(cc2F)c(=O)c(C(=O)O)c2n3C(C)S2)CC1 (stereo not given)" label=YES
compound=CN(C)CCc1c[nH]c2ccc(C[C@H]3COC(=O)N3)cc12 label=NO
compound="Nc1nc(N)c2nc(CNc3ccc(C(=O)NC(CCC(=O)O)C(=O)O)cc3)cnc2n1 (stereo not given)" label=YES
compound=COc1cc2nc(N3CCCN(C)CC3)nc(NC3CCN(Cc4ccccc4)CC3)c2cc1OC label=YES
compound="COC(=O)Nc1nc2ccc(S(=O)c3ccccc3)cc2[nH]1 (stereo not given)" label=YES

###

# Run Description: qHTS of pediatric cancer cell lines to identify multiple opportunities for drug repurposing: Confirmatory screen for SJ-GBM2 cells (AID 1347116);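 note: 48 hour compound exposure; nearly all actives have a fitted effect of over 60% in size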
# Run Parameters: SJ-GBM2 glioblastoma cells, viability; series mostly up to 45.9 µM
Results filed as inconclusive are left out. Calls of active or inactive are those of the source. Calls come from the whole dose curve; as a rule, active = well fitted cell-killing curve with a large enough effect; inconclusive = small, poorly fitted or top-dose-only effect, or effect the other way; inactive = no such curve, though single readings can be large or run the other way.
Classes used: True (active), False (inactive)

compound=Cn1nnc2c(C(N)=O)ncn2c1=O label=False
compound=CC(C)C[C@H](NC(=O)[C@H](CCc1ccccc1)NC(=O)CN1CCOCC1)C(=O)N[C@@H](Cc1ccccc1)C(=O)N[C@@H](CC(C)C)C(=O)[C@@]1(C)CO1 label=True
compound=COc1ccc(C(=O)CC(=O)c2ccc(C(C)(C)C)cc2)cc1 label=False
compound=Nc1nc(=S)c2[nH]cnc2[nH]1 label=True
compound=CO[C@@]12[C@H](COC(N)=O)C3=C(C(=O)C(C)=C(N)C3=O)N1C[C@@H]1N[C@@H]12 label=True
compound=CCOC(=O)[C@H](CCc1ccccc1)N[C@H]1CS[C@H](c2cccs2)CN(CC(=O)O)C1=O label=False
compound=CN(C)c1ccc(C(=C2C=CC(=[N+](C)C)C=C2)c2ccc(N(C)C)cc2)cc1 label=True
compound=Nc1nc(F)nc2c1ncn2[C@@H]1O[C@H](CO)[C@@H](O)[C@@H]1O label=True
compound="CC1CC2C3CCC4=CC(=O)C=C[C@]4(C)[C@@]3(F)[C@@H](O)C[C@]2(C)[C@@]1(O)C(=O)CO (stereo not given in full)" label=False
compound=CNCC[C@H](Oc1cccc2ccccc12)c1cccs1 label=False

###

# Test system: CP201
# Run Description: qHTS profiling for inhibitors of Plasmodium falciparum proliferation (AID 504749); note: nearly all actives have a fitted effect of over 60% in size
# Run Parameters: P. falciparum in erythrocytes, SYBR Green DNA, 72 h; series mostly up to 28.7 µM
Results filed as inconclusive are left out. Activity calls are given as the source filed them. The call rests on the fitted dose curve; in most records, active means well fitted inhibition curve with a large enough effect; inconclusive means small, poorly fitted or top-dose-only effect; inactive means flat fitted curve, though single readings scatter.
Classes used: 1 (yes) for active, 0 (no) for inactive

molecule=COc1ncnc(NS(=O)(=O)c2ccc(N)cc2)c1OC system_tested=CP201 label="0 (no)"
molecule=CC(C)Cn1cnc2c(N)nc3ccccc3c21 system_tested=CP201 label="0 (no)"
molecule="CCC(C)(C)c1ccc(CC(C)CN2C[C@@H](C)O[C@@H](C)C2)cc1 (stereo partly drawn)" system_tested=CP201 label="0 (no)"
molecule=COc1cc(NS(=O)(=O)c2ccc(N)cc2)nc(OC)n1 system_tested=CP201 label="0 (no)"
molecule=CCCN[C@H]1CCc2nc(N)sc2C1 system_tested=CP201 label="0 (no)"
molecule=CC(C)(C)C(=O)OCOP(=O)(COCCn1cnc2c(N)ncnc21)OCOC(=O)C(C)(C)C system_tested=CP201 label="0 (no)"
molecule=COC(=O)Nc1nc2ccc(C(=O)c3ccccc3)cc2[nH]1 system_tested=CP201 label="0 (no)"
molecule=Cc1noc(NS(=O)(=O)c2ccc(N)cc2)c1C system_tested=CP201 label="0 (no)"
molecule="Nc1nc(N)c2nc(CNc3ccc(C(=O)NC(CCC(=O)O)C(=O)O)cc3)cnc2n1 (stereo not drawn)" system_tested=CP201 label="0 (no)"
molecule="COc1c(N2CCNC(C)C2)c(F)cc2c(=O)c(C(=O)O)cn(C3CC3)c12 (stereo not drawn)" system_tested=CP201 label="0 (no)"
molecule=Nc1nc(N)nc(-c2cc(Cl)ccc2Cl)n1 system_tested=CP201 label="0 (no)"
molecule=CC1=CC(=O)c2ccccc2C1=O system_tested=CP201 label="0 (no)"
molecule=CCOC(=O)[C@H](CCc1ccccc1)N[C@H]1CS[C@H](c2cccs2)CN(CC(=O)O)C1=O system_tested=CP201 label="0 (no)"
molecule=CN(C)c1ccc(C(=C2C=CC(=[N+](C)C)C=C2)c2ccc(N(C)C)cc2)cc1 system_tested=CP201 label="1 (yes)"
molecule=NC(=O)N1c2ccccc2CC(=O)c2ccccc21 system_tested=CP201 label="0 (no)"
molecule=CN1CCN(c2c(F)cc3c(=O)c(C(=O)O)cn(CCF)c3c2F)CC1 system_tested=CP201 label="0 (no)"
molecule=Cn1nnc2c(C(N)=O)ncn2c1=O system_tested=CP201 label="0 (no)"
molecule=Cc1nnc(NS(=O)(=O)c2ccc(N)cc2)s1 system_tested=CP201 label="0 (no)"
molecule=CN(C)CCc1c[nH]c2ccc(CS(=O)(=O)N3CCCC3)cc12 system_tested=CP201 label="0 (no)"
molecule=CC(C)(Sc1cc(C(C)(C)C)c(O)c(C(C)(C)C)c1)Sc1cc(C(C)(C)C)c(O)c(C(C)(C)C)c1 system_tested=CP201 label="0 (no)"
molecule=COc1ccc2cc3[n+](cc2c1OC)CCc1cc2c(cc1-3)OCO2 system_tested=CP201 label="1 (yes)"
molecule=CCCc1cc(C(N)=S)ccn1 system_tested=CP201 label="0 (no)"
molecule=Cc1cccc(Nc2ccncc2S(=O)(=O)NC(=O)NC(C)C)c1 system_tested=CP201 label="0 (no)"

###

# Tested on: CASKI
# Run Description: Primary qHTS to identify gynecologic anti-cancer compounds using libraries of approved drugs and bioactive compounds (AID 1345084); note: nearly all actives have a fitted effect of over 55% in size
# Run Parameters: Gynecologic cancer cell panel viability, ATPlite luminescence, 48 h; series mostly up to 57.5 µM
Results filed as inconclusive are left out. Active and inactive are the calls of the source. Calls come from the whole dose curve; as a rule, active = well fitted cell-killing curve with a large enough effect; inconclusive = small, poorly fitted or top-dose-only effect, or effect the other way; inactive = flat fitted curve, though single readings scatter.
Classes used: 1 = active, -1 = inactive

compound=O=NN(CCCl)C(=O)NC1CCCCC1 system_tested=CASKI label=-1
compound=CNNCc1ccc(C(=O)NC(C)C)cc1 system_tested=CASKI label=-1
compound=CCC(=O)O[C@]1(C(=O)CCl)[C@@H](C)C[C@H]2[C@@H]3CCC4=CC(=O)C=C[C@]4(C)[C@@]3(F)[C@@H](O)C[C@@]21C system_tested=CASKI label=-1
compound=C[C@@H]1C[C@H]2[C@@H]3CCC4=CC(=O)C=C[C@]4(C)[C@@]3(Cl)[C@@H](O)C[C@]2(C)[C@@]1(OC(=O)c1ccco1)C(=O)CCl system_tested=CASKI label=-1
compound="CCOCC(O)COc1ccc(NC(=O)CC[S+](C)C)cc1 (centres undefined)" system_tested=CASKI label=-1
compound=COc1cc(NS(=O)(=O)c2ccc(N)cc2)nc(OC)n1 system_tested=CASKI label=-1
compound="CC(C(=O)O)c1ccc2c(c1)CC(=O)c1ccccc1S2 (centres undefined)" system_tested=CASKI label=-1
compound=CCN[C@H]1C[C@H](C)S(=O)(=O)c2sc(S(N)(=O)=O)cc21 system_tested=CASKI label=-1
compound=O=C(O)c1ccc(-n2nc(-c3ccccc3O)nc2-c2ccccc2O)cc1 system_tested=CASKI label=-1
compound=O=S(=O)(c1cccc2cnccc12)N1CCCNCC1 system_tested=CASKI label=-1
compound=COc1cccc(N(C)C(=S)Oc2ccc3c(c2)CCCC3)n1 system_tested=CASKI label=-1
compound=Nc1nc(F)nc2c1ncn2[C@@H]1O[C@H](CO)[C@@H](O)[C@@H]1O system_tested=CASKI label=-1
compound=CCCCCCNC(=O)n1cc(F)c(=O)[nH]c1=O system_tested=CASKI label=-1
compound=CNC(=O)c1cc(Oc2ccc(NC(=O)Nc3ccc(Cl)c(C(F)(F)F)c3)cc2)ccn1 system_tested=CASKI label=-1
compound=COc1ccc2cc3[n+](cc2c1OC)CCc1cc2c(cc1-3)OCO2 system_tested=CASKI label=1
compound="CCC(C)(C)c1ccc(CC(C)CN2C[C@@H](C)O[C@@H](C)C2)cc1 (some centres undefined)" system_tested=CASKI label=-1
compound=C#CCN[C@@H]1CCc2ccccc21 system_tested=CASKI label=-1
compound=CNS(=O)(=O)CCc1ccc2[nH]cc(C3CCN(C)CC3)c2c1 system_tested=CASKI label=-1
compound=O=c1cc(O)c(Cl)c[nH]1 system_tested=CASKI label=-1
compound=COC(c1ccccc1)(c1ccccc1)[C@H](Oc1nc(C)cc(C)n1)C(=O)O system_tested=CASKI label=-1
compound=Nc1nc(N)nc(-c2cc(Cl)ccc2Cl)n1 system_tested=CASKI label=-1
compound=CC(C)(C)NC(=O)[C@H]1CC[C@H]2[C@@H]3CC[C@H]4NC(=O)C=C[C@]4(C)[C@H]3CC[C@]12C system_tested=CASKI label=-1
compound=CCCc1nc(C)c2c(=O)[nH]c(-c3cc(S(=O)(=O)N4CCN(CC)CC4)ccc3OCC)nn12 system_tested=CASKI label=-1
compound=CC(C)OC(=O)C(C(=O)OC(C)C)=C1SC=CS1 system_tested=CASKI label=-1
compound=O=C(O)c1cn(C2CC2)c2cc(N3CCNCC3)c(F)cc2c1=O system_tested=CASKI label=-1
compound=CCc1cc(C(N)=S)ccn1 system_tested=CASKI label=-1
compound=COc1nc(N)nc2c1ncn2[C@@H]1O[C@H](CO)[C@@H](O)[C@@H]1O system_tested=CASKI label=-1
compound=CCCN[C@H]1CCc2nc(N)sc2C1 system_tested=CASKI label=-1
compound=CC1=NN(c2ccccc2)C(=O)C1 system_tested=CASKI label=-1
compound=NCCCC(O)(P(=O)(O)O)P(=O)(O)O system_tested=CASKI label=-1
compound=CN(Cc1cc(Br)cc(Br)c1N)C1CCCCC1 system_tested=CASKI label=-1
compound=COc1cnc(NS(=O)(=O)c2ccc(N)cc2)nc1 system_tested=CASKI label=-1
compound=NC(=O)N1c2ccccc2CC(=O)c2ccccc21 system_tested=CASKI label=-1
compound=CC(=O)[C@H]1CC[C@H]2[C@@H]3CC=C4C[C@@H](O)CC[C@]4(C)[C@H]3CC[C@]12C system_tested=CASKI label=-1
compound=N=C(N)c1ccc(OCCCCCOc2ccc(C(=N)N)cc2)cc1 system_tested=CASKI label=-1
compound=CN1CCN(c2c(F)cc3c(=O)c(C(=O)O)cn4c3c2OCN4C)CC1 system_tested=CASKI label=-1
compound="CNC1CCCN(c2c(F)cc3c(=O)c(C(=O)O)cn(C4CC4)c3c2OC)C1 (centres undefined)" system_tested=CASKI label=-1
compound=C[C@]12C=CC(=O)C=C1CC[C@@H]1[C@@H]2C(=O)C[C@@]2(C)[C@H]1CC[C@]2(O)C(=O)CO system_tested=CASKI label=-1
compound=CCCCOc1ccc(CC(=O)NO)cc1 system_tested=CASKI label=-1
compound=CO[C@@]12[C@H](COC(N)=O)C3=C(C(=O)C(C)=C(N)C3=O)N1C[C@@H]1N[C@@H]12 system_tested=CASKI label=1
compound=Cc1onc(-c2ccccc2Cl)c1C(=O)N[C@@H]1C(=O)N2[C@@H]1SC(C)(C)[C@@H]2C(=O)O system_tested=CASKI label=-1
compound=CC1(C)[C@H](C(=O)O)N2C(=O)C[C@H]2S1(=O)=O system_tested=CASKI label=-1
compound=O=C(O)CCn1c2c(c3ccccc31)C[C@H](NS(=O)(=O)c1ccc(F)cc1)CC2 system_tested=CASKI label=-1
compound=CCn1cc(C(=O)O)c(=O)c2cc(F)c(N3CCN(C)CC3)cc21 system_tested=CASKI label=-1
